# ASSAY_TARGET: monoclonal antibody 21-4-3
# Sequence (VH, as listed by the source, form in doubt, chain 1 of 2): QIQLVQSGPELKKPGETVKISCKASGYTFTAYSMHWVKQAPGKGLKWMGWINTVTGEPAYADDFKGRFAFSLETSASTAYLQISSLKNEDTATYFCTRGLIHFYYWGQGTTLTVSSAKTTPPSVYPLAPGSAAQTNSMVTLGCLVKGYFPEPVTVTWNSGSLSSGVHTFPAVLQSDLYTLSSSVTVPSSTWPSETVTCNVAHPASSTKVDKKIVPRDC
# Sequence (VL, as listed by the source, form in doubt, chain 2 of 2): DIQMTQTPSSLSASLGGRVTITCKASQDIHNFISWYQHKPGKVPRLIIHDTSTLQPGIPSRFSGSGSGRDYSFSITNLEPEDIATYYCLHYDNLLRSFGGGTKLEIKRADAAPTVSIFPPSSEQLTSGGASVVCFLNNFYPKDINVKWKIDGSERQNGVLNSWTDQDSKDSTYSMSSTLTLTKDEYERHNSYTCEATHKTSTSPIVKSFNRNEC
# ASSAY_PROCEDURE: SPR, captured 21-4-3, 500 nM; % of Fig. 9 reference
Reported values of binding of 21-4-3, % of Reference Sequence for individual entries
METRIC: binding of 21-4-3, % of Reference Sequence (%)

BINDER	ASSAY_VALUE
SEQ ID NO: 68 (VHH) VHH: EVQLVESGGGLVQAGGSLRLSCAASRSIGRLDRMGWYRHRPGEPRELVATITGGSSINYGDSVKGRFTISIDNSKNTVYLQMNSLRPEDTAVYYCNFNKYVTSRDTWGQGTQVTVSS	26
SEQ ID NO: 83 (VHH) VHH: EVQLVESGGGLVQPGGSLRLSCAASRSIGRLDRMGWYRHRPGEPRELVATITGGSSINYGDSVKGRFTISIDNSKNTVYLQMNSLRPEDAAVYYCNFNKYVTSRDTWGQGTLVTVSS	79
SEQ ID NO: 71 (VHH) VHH: EVQLVESGGGLVQPGGSLRLSCAASRSIGRLDRMGWYRHRPGEPRELVATITGGSSINYGDSVKGRFTISIDNSKNTVYLQMNSLRPEDTAVYYCNFNKYVTSRDTWGQGTLVTVSG	44
SEQ ID NO: 70 (VHH) VHH: EVQLVESGGGLVQPGGSLRLSCAASRSIGRLDRMGWYRHRPGEPRELVATITGGSSINYGDSVKGRFTISIDNSKNTVYLQMNSLRPEDTAVYYCNFNKYVTSRDTWGQGTLVQVSS	106
SEQ ID NO: 49 (VHH) VHH: EVQLLESGGGLVQPGGSLRLSCAASGLPFSTKSMGWFRQAPGKGREFVSRISPGGTSRYYGDFVKGRFTISRDNSKNTLYLQMNSLRAEDTAVYYCASGERSTYIGSNYYRTNEYDYWGQGTLVTVSS	4
SEQ ID NO: 67 (VHH) VHH: EVQLVESGGGLVQPGGSLRLSCAASRSIGRLDRMGWYRHRPGEPRELVATITGGSSINYGDSVKGRFTISIDNSKNTVYLQMNSLKPEDTAVYYCNFNKYVTSRDTWGQGTLVTVSS	101
SEQ ID NO: 78 (VHH) VHH: EVQLVESGGGLVRPGGSLRLSCAASRSIGRLDRMGWYRHRPGEPRELVATITGGSSINYGDSVKGRFTISIDNSKNTVYLQMNSLRPEDTAVYYCNFNKYVTSRDTWGQGTLVTVSS	1
SEQ ID NO: 81 (VHH) VHH: EVQLVESGGGVVQPGGSLRLSCAASRSIGRLDRMGWYRHRPGEPRELVATITGGSSINYGDSVKGRFTISIDNSKNTVYLQMNSLRPEDTAVYYCNFNKYVTSRDTWGQGTLVTVSS	75
SEQ ID NO: 48 (VHH) VHH: EVQLVESGGGLVQPGGSLRLSCIASGLPFSTKSMGWFRQAPGKEREFVARISPGGTSRYYGDFVKGRFAISRDNAKNTTWLQMNSLKAEDTAVYYCASGERSTYIGSNYYRTNEYDYWGTGTQVTVSS	3
SEQ ID NO: 82 (VHH) VHH: EVQLVESGGGLVQPGGSLRLSCAASRSIGRLDRMGWYRHRPGEPRELVATITGGSSINYGDSVKGRFTISIDNSKNTVYLQMNSLRAEDTAVYYCNFNKYVTSRDTWGQGTLVTVSS	56
SEQ ID NO: 69 (VHH) VHH: EVQLVESGGGLVQPGGSLRLSCAASRSIGRLDRMGWYRHRPGEPRELVATITGGSSINYGDSVKGRFTISIDNSKNTVYLQMNSLRPEDTAVYYCNFNKYVTSRDTWGQGTQVTVSS	106
SEQ ID NO: 65 (VHH) VHH: EVQLVESGGGLVQAGGSLRLSCAASRSIGRLDRMGWYRHRPGEPRELVATITGGSSINYGDSVKGRFTISIDNSKNTVYLQMNSLRPEDTAVYYCNFNKYVTSRDTWGQGTLVTVSS	23
SEQ ID NO: 80 (VHH) VHH: EVQLVESGGGLVQPGGSLRLSCAASRSIGRLDRMGWYRHRPGEPRELVATITGGSSINYGDSVKGRFTISIDNSKNTVYLQMNSLRPEDTAVYYCNFNKYVTSRDTWGQGTLVQVGG	51
SEQ ID NO: 89 (VHH) VHH: EVQLVESGGGSVQAGGSLRLSCAASRSIGRLDRMGWYRHRPGEPRELVATITGGSSINYGDSVKGRFTISIDNSKNTVYLQMNSLRPEDTAVYYCNFNKYVTSRDTWGQGTLVQVGG	2
SEQ ID NO: 43 (VHH) DVQLVESGGGLVQPGGSLRLSCAASGFILDYYAIGWFRQAPGKEREGVLCIDASDDITYYADSVKGRFTISRDNSKNTVYLQMNSLRPEDTAVYYCATPIGLSSSCLLEYDYDYWGQGTLVTVSSGGGGSGGGSEVQLLESGGGLVQPGGSLRLSCAASGFTFRSFGMSWVRQAPGKGPEWVSSISGSGSDTLYADSVKGRFTISRDNSKNTLYLQMNSLRPEDTAVYYCTIGGSLSRSSQGTLVTVSSA	3
